parameter: logP

> print(dat)
                                   compound  recordedresult
1          O=C(Nc1ccccc1)[C@H]1C[C@H]1C(F)F            2.35
2                      O=C(c1ccccc1)N1CCCC1            1.19
3                  O=C(NC1(CF)CCC1)c1ccccc1            2.03
4            O=C(N[C@@H]1CC[C@H]1F)c1ccccc1            1.64
5  O=C(N[C@H]1C[C@@H]2[C@H](C1)C2(F)F)c1ccccc1            2.47
6  O=C(Nc1ccccc1)C1CC2(CC(F)C2)C1 (configuration not stated)            2.69
7       O=C(N[C@H]1C[C@H]1C(F)(F)F)c1ccccc1            2.16
